System: Haemophilus influenzae C.L.
EXPERIMENTAL_PROTOCOL: MIC, standard agar-dilution assay
Assay type: cell-based
Provide the recorded MIC for the entries that follow.

For CCCCCCCCCCCCNC1(C)CC(OC2C(Oc3c4cc5cc3Oc3ccc(cc3Cl)C(O)C3NC(=O)C(NC(=O)C5NC(=O)C(CC(N)=O)NC(=O)C(NC(=O)C(CC(C)C)NC)C(O)c5ccc(c(Cl)c5)O4)c4ccc(O)c(c4)-c4c(O)cc(O)cc4C(C(=O)O)NC3=O)OC(CO)C(O)C2O)OC(C)C1O (stereo not drawn) [Compound 1, N^van --(n-dodecyl)vancomycin] the molecule record lists MIC as > 128 µg/mL

get_value(item= CCNC1(C)CC(OC2C(Oc3c4cc5cc3Oc3ccc(cc3Cl)C(O)C(NC(=O)C(CC(C)C)N(C)CC)C(=O)NC(CC(N)=O)C(=O)NC5C(=O)NC3C(=O)NC(C(=O)NC(C(=O)O)c5cc(O)cc(O)c5-c5cc3ccc5O)C(O)c3ccc(c(Cl)c3)O4)OC(CO)C(O)C2O)OC(C)C1O (stereo not drawn) [Compound 24, N^van, N^leu --diethylvancomycin] , readout=MIC) returns < 128 µg/mL

Summary for this molecule, CCCCNC1(C)CC(OC2C(Oc3c4cc5cc3Oc3ccc(cc3Cl)C(O)C(NC(=O)C(CC(C)C)N(C)CCCC)C(=O)NC(CC(N)=O)C(=O)NC5C(=O)NC3C(=O)NC(C(=O)NC(C(=O)O)c5cc(O)cc(O)c5-c5cc3ccc5O)C(O)c3ccc(c(Cl)c3)O4)OC(CO)C(O)C2O)OC(C)C1O (stereo not drawn) [Compound 19, N^van, N^leu --di(n-butyl)vancomycin] : MIC is > 128 µg/mL
